# Target desc: CDK7/Cyclin H/MNAT1 (Homo sapiens)
# Sequence (P51946 whole entry): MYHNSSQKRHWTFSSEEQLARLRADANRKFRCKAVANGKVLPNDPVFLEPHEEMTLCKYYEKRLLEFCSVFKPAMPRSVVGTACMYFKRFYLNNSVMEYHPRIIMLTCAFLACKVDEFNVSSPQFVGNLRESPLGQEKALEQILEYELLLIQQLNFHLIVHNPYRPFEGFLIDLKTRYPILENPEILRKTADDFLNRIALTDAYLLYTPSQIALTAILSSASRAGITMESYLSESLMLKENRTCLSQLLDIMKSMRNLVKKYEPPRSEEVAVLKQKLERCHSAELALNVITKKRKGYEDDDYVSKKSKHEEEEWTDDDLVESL
# Sequence (P50613 whole entry): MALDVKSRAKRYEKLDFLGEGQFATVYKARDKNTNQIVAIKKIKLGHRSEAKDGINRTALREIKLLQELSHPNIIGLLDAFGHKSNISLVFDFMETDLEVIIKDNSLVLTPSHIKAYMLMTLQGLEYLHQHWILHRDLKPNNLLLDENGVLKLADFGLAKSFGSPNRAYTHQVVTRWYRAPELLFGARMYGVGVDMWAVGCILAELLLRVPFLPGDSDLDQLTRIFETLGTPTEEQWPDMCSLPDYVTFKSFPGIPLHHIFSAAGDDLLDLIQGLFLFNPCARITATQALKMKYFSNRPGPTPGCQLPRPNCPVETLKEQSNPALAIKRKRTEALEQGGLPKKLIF
# Sequence (P51948 whole entry, further chain): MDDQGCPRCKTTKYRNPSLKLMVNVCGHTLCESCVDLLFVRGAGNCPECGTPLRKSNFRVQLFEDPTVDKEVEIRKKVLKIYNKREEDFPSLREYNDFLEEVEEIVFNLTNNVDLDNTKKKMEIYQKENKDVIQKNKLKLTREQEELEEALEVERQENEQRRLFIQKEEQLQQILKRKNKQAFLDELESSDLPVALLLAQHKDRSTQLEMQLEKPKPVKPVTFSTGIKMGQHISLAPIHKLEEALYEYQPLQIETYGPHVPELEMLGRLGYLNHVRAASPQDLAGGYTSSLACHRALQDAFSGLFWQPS
pIC50: −log10 of the molar value.

Compound	Target desc	Qualifier symbol	pIC50
C=CC(=O)Nc1ccc(C(=O)N2CCC[C@@H](Nc3ncc(SCc4ncc(C(C)(C)C)o4)s3)C2)cc1F	CDK7/Cyclin H/MNAT1 (Homo sapiens)	=	5.26
C=CC(=O)Nc1ccc(C(=O)N2CCC[C@@H](Nc3ncc(SCc4ncc(C(C)(C)C)o4)s3)C2)nc1	CDK7/Cyclin H/MNAT1 (Homo sapiens)	=	5.41
C=CC(=O)Nc1ccc(C(=O)N2CCC[C@@H](Nc3ncc(SCc4ccncc4)s3)C2)cc1	CDK7/Cyclin H/MNAT1 (Homo sapiens)	<	5.00
C=CC(=O)Nc1ccc(C(=O)N2CCC[C@@H](Nc3nc(C)c(SCc4ncc(C(C)(C)C)o4)s3)C2)cc1	CDK7/Cyclin H/MNAT1 (Homo sapiens)	<	5.00
C=CC(=O)Nc1ccc(C(=O)N2CCC[C@@H](Nc3ncc([S+]([O-])Cc4ncc(C(C)(C)C)o4)s3)C2)cc1 (stereo not given in full)	CDK7/Cyclin H/MNAT1 (Homo sapiens)	<	5.00
C=CC(=O)Nc1ccc(C(=O)N2CC(Nc3ncc(SCc4ncc(C(C)(C)C)o4)s3)CC(F)(F)C2)cc1 (stereo not given)	CDK7/Cyclin H/MNAT1 (Homo sapiens)	=	5.02
C=CC(=O)Nc1ccc(C(=O)N2CCC[C@@H](Nc3ncc(SCc4ncc(C(C)(C)C)o4)s3)C2)cc1C(F)(F)F	CDK7/Cyclin H/MNAT1 (Homo sapiens)	=	5.46
C=CC(=O)Nc1ccc(C(=O)N2CCC[C@@H](Nc3ncc(SCc4ncc(C(C)(C)C)o4)s3)[C@H]2C)cc1	CDK7/Cyclin H/MNAT1 (Homo sapiens)	=	5.11
C=CC(=O)Nc1ccc(C(=O)N2CCC[C@@H](Nc3ncc(Cl)c(SCc4ncc(C(C)(C)C)o4)n3)C2)cc1	CDK7/Cyclin H/MNAT1 (Homo sapiens)	=	5.29
C=CC(=O)Nc1ccc(C(=O)N2C[C@H](Nc3ncc(SCc4ncc(C(C)(C)C)o4)s3)CC[C@@H]2C)cc1	CDK7/Cyclin H/MNAT1 (Homo sapiens)	=	6.22

From: ChEMBL document CHEMBL4610118
